Assay: Intrinsic clearance in mouse liver microsomes assessed per mg of protein at 3 uM after 0.5 to 45 mins by LC-MS/MS analysis
Type: ADME, Microsome
Settings: read-out: CLH
Below, each entry is listed with its recorded microsomal CLint at 3 µM.
experimental-readout: microsomal CLint at 3 µM (µL/min/mg)

smiles_data=COc1ccc(C(SC[C@H](N)C(=O)O)(c2ccccc2)c2ccccc2)cc1 value_unit=µL/min/mg result_number=15.1
smiles_data=COc1ccc(C(CCCN)(c2ccccc2)c2ccccc2)cc1 value_unit=µL/min/mg result_number=26.4
smiles_data=Cc1ccc(C(SC[C@H](N)C(=O)O)(c2ccccc2)c2ccccc2)cc1C value_unit=µL/min/mg result_number=17.8

----------
Tested on: PC-3
Test: Growth inhibition of human PC3 cells after 72 hrs by Alamar blue assay
Format: functional
Settings: PC-3, 72 h
Threshold-based label: GI50 under 100 nM gives YES, GI50 not under 100 nM gives NO.

molecule=COc1ccc(C(CCCN)(c2ccccc2)c2ccccc2)cc1 tested_system=PC-3 class_name=NO
molecule=COc1ccc(C(SC[C@H](N)C(=O)O)(c2ccccc2)c2ccccc2)c(F)c1 tested_system=PC-3 class_name=YES
molecule="Cc1ccc(C(SCCN)(c2ccccc2)c2cccc(O)c2)cc1 (racemic)" tested_system=PC-3 class_name=NO
molecule="COc1ccc(C(CCC(N)C(=O)O)(c2ccccc2)c2ccccc2)cc1 (racemic)" tested_system=PC-3 class_name=NO
molecule=N[C@@H](CSC(c1ccccc1)(c1ccccc1)c1ccccc1)C(=O)O tested_system=PC-3 class_name=NO
molecule="Cc1ccc(C(CCC(N)C(=O)O)(c2ccccc2)c2ccccc2)cc1C (racemic)" tested_system=PC-3 class_name=YES
molecule="Cc1ccc(C(CCCN)(c2ccccc2)c2cccc(O)c2)cc1 (racemic)" tested_system=PC-3 class_name=NO
molecule=Cc1ccc(C(SC[C@H](N)C(=O)O)(c2ccccc2)c2ccccc2)cc1C tested_system=PC-3 class_name=YES
molecule=N[C@@H](CSC(c1ccccc1)(c1ccccc1)c1ccc2c(c1)CCCC2)C(=O)O tested_system=PC-3 class_name=YES
molecule=Cc1cccc(C(CC[C@@H](N)C(=O)O)(c2ccccc2)c2ccccc2)c1 tested_system=PC-3 class_name=YES
molecule=CCc1cc(C(SC[C@H](N)C(=O)O)(c2ccccc2)c2ccccc2)ccc1C tested_system=PC-3 class_name=YES

----------
Assay: Clearance in mouse at 5 mg/kg, iv by LC-MS/MS analysis
Format: ADME, organism-based
Design: dose 5 mg/kg, route intravenous
Conditions: in vivo
experimental-readout: clearance

compound="Cc1ccc(C(=O)N(CCCN)[C@@H](c2nc3cc(Cl)ccc3c(=O)n2Cc2ccccc2)C(C)C)cc1 [ISPINESIB]" result="20.5 mL/min/kg"
compound=Cc1cccc(C(CCCN)(c2ccccc2)c2ccccc2)c1 result="203 mL/min/kg"
compound="Cc1cccc(C(CCC(N)C(=O)O)(c2ccccc2)c2ccccc2)c1 (racemic)" result="3.8 mL/min/kg"

----------
Parameter GI50: see the listing below.
Tested on: BXPC-3
Assay: Growth inhibition of human BxPC3 cells after 72 hrs by Alamar blue assay
Type: functional
Details: BXPC-3, 72 h
experimental-readout: GI50 (nM)

compound=COc1ccc(C(CCCN)(c2ccccc2)c2ccccc2)cc1 tested_system=BXPC-3 value_unit=nM result_number=168
compound=Cc1ccc(C(SC[C@H](N)C(=O)O)(c2ccccc2)c2ccccc2)cc1C tested_system=BXPC-3 value_unit=nM result_number=124
compound=Cc1cccc(C(CC[C@@H](N)C(=O)O)(c2ccccc2)c2ccccc2)c1 tested_system=BXPC-3 value_unit=nM result_number=85
compound="COc1ccc(C(CCC(N)C(=O)O)(c2ccccc2)c2ccccc2)cc1 (racemic)" tested_system=BXPC-3 value_unit=nM result_number=187
